Assay: qHTS assay to identify small molecule agonists of the sonic hedgehog signaling (Shh) pathway (AID 1259368);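 also: NIH/3T3-derived 3T3Gli1-Luc cells carrying a stable Gli1-driven firefly luciferase reporter; % is scaled to controls: 0 for no effect and ±100 for the full control effect; nearly all actives have a fitted effect of over 15% in size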
Conditions: NIH/3T3 Gli1-Luc reporter, luciferase, 24 h, stronger effect = higher value; series mostly up to 92.4 µM
Text: National Center for Advancing Translational Sciences [NCATS] NIH Chemical Genomics Center [NCGC] U.S. Environmental Protection Agency [EPA] National Institutes of Environmental Health Sciences [NIEHS] National Toxicology Program [NTP] The sonic hedgehog (Shh) pathway is essential for normal embryonic development. Dysregulation of the Shh pathway can cause severe developmental defects in organs. Therefore chemicals that interfere with the pathway are potential developmental toxicants. […]
Activity calls are given as the source filed them. Calls follow the shape of the full dose curve.
experimentalReadout: activity change

CC(C)N(c1ccccc1)C(C)C | inactive
COc1cc(C(=S)N2CCOCC2)cc(OC)c1OC | inactive
OC[C@H](Cc1cccc(O)c1)[C@H](CO)Cc1cccc(O)c1 | inactive
C[Si](C)=O | 0.132% [at 8.39 µM] (inactive)

Lookup: Fill blank: measured activity change of the compound `Nc1ccc2cc(S(=O)(=O)O)cc(O)c2c1` is ____.
Found: inactive

Lookup: Fill blank: measured activity change of the compound `CN1CCN(CC(=O)N2c3ccccc3C(=O)Nc3cccnc32)CC1` is ____.
Found: 0.176% [at 8.39 µM] (inactive)

Lookup: Fill blank: measured activity change of the compound CC(C)NCC(O)COc1ccc(COCCOC(C)C)cc1 (configuration not stated) is ____.
Found: inactive

* * *

Assay: qHTS assay to identify small molecule agonists of the TGF-beta/Smad signaling pathway - cell viability counter screen (AID 1346829); also: top concentration of the series differs between compounds; % is scaled to controls: 0 for no effect and ±100 for the full control effect; nearly all actives have a fitted effect of over 45% in size
Settings: SBE-bla HEK293T viability, CellTiter-Glo luminescence, 5 h; series mostly up to 76.8 µM
Inconclusive results are not listed. Active and inactive are the calls of the source. Calls come from the whole dose curve; as a rule, active = well fitted cell-killing curve with a large enough effect in the repeat runs; inconclusive = weak or mixed curves, or effect the other way; inactive = flat fitted curve, though single readings scatter.
experimentalReadout: activity change, negative = cytotoxicity

Some solved cases for reference:
CC(C)CCCCOC(=O)c1ccccc1C(=O)OCCCCC(C)C | inactive
Cc1cc(NC(=O)C2=C(O)c3ccccc3S(=O)(=O)N2C)no1 | inactive
N#Cc1ccc(C(=O)O)cc1 | inactive
OCCCCC(O)CO (stereo unspecified) | inactive

Lookup: Fill blank: measured activity change, negative = cytotoxicity of the molecule `O=C1O[C@@H]2[C@@H](O)[C@H](O)O[C@@H]2[C@H]1O` is ____.
Found: inactive

Lookup: Fill blank: measured activity change, negative = cytotoxicity of the molecule O=C(CS(=O)Cc1ccco1)NC/C=C\COc1cc(CN2CCCCC2)ccn1 (stereo unspecified) is ____.
Found: inactive

* * *

Assay: qHTS assay to identify small molecule agonists of the endoplasmic reticulum stress response signaling pathway (AID 1159516); also: % is scaled to controls: 0 for no effect and ±100 for the full control effect
Details: ESRE-bla HeLa, ER stress beta-lactamase reporter, 5 h; series mostly up to 61 µM
Records with an inconclusive call do not appear. Active and inactive are the calls of the source. Calls come from the whole dose curve; as a rule, active = well fitted activation curve with a large enough effect in the signal ratio in the repeat runs (not every such curve was filed as active); inconclusive = weak or mixed curves, or effect the other way; inactive = flat fitted curve, though single readings scatter; the % refers to the signal ratio.
experimentalReadout: activation

Some solved cases for reference:
CC(C)C(=O)OCCc1ccccc1 | inactive
O=C(NCCN1CCOCC1)c1ccc(Cl)cc1 | inactive
Brc1ccc(-c2ccccc2)cc1 | inactive
CN(C)c1ccc(C=O)cc1 | inactive
FC(F)(F)c1ccccc1-n1ccnc1 | inactive

Lookup: Fill blank: measured activation of the compound `CC(=C(CCOC(=O)C(C)C)SSC(CCOC(=O)C(C)C)=C(C)N(C=O)Cc1cnc(C)nc1N)N(C=O)Cc1cnc(C)nc1N` is ____.
Found: inactive

Lookup: Fill blank: measured activation of the compound O=C(NCC(O)CO)c1c(I)c(C(=O)NCC(O)CO)c(I)c(N(CCO)C(=O)CO)c1I (stereo not drawn) is ____.
Found: inactive

Lookup: Fill blank: measured activation of the compound `CCOCCOCCOCC` is ____.
Found: inactive

Lookup: Fill blank: measured activation of the compound `C[Si](C)(C)C` is ____.
Found: inactive

* * *

Assay: qHTS assay to test for compound auto fluorescence at 590 nm (red) in HepG2 cell free culture (AID 720684); also: % is scaled to controls: 0 for no effect and ±100 for the full control effect
Conditions: cell-free medium autofluorescence, red 540/590 nm; series mostly up to 91.3 µM
Active and inactive are the calls of the source. Calls come from the whole dose curve; as a rule, active = well fitted curve in the direction sought with a large enough effect in the repeat runs; inconclusive = weak or mixed curves; inactive = flat fitted curve, though single readings scatter.
experimentalReadout: fluorescence, % of Rose Bengal

CCOCCOCCOCC | inactive
O=C1c2ccccc2C(=O)N1CCl | inactive
COc1cc2c(cc1OC)[C@@H]1CC(=O)[C@@H](CC(C)C)CN1CC2 | inactive
CCCCCCCCC1CCC(=O)O1 (stereo not given) | inactive
COc1ccc(Br)c(C)c1 | inactive
CCCCCCOC(=O)CC | inactive

Lookup: Fill blank: measured fluorescence, % of Rose Bengal of the compound `CCCCCCCCCCCCCC` is ____.
Found: inactive

Lookup: Fill blank: measured fluorescence, % of Rose Bengal of the compound `CCOc1cc([N+](=O)[O-])c(OCC)cc1N1CCOCC1` is ____.
Found: inactive

Lookup: Fill blank: measured fluorescence, % of Rose Bengal of the compound `COC(=O)c1ccccc1C(=O)c1ccc(OCCN2CCCCC2)cc1` is ____.
Found: inactive

Lookup: Fill blank: measured fluorescence, % of Rose Bengal of the compound `CC(C)=CCOC(=O)c1ccccc1` is ____.
Found: inactive

* * *

Assay: qHTS RealTime-Glo MT Cell Viability Assay in HEK293 cells - 0 hour (AID 1224880); also: top concentration of the series differs between compounds; % is scaled to controls: 0 for no effect and ±100 for the full control effect; nearly all actives have a fitted effect of over 45% in size
Details: RealTime-Glo luminescence; series mostly up to 76.8 µM
Results filed as inconclusive are left out. Active and inactive are the calls of the source. The call rests on the fitted dose curve; in most records, active means well fitted cell-killing curve with a large enough effect in the repeat runs; inconclusive means weak or mixed curves, or effect the other way; inactive means flat fitted curve, though single readings scatter.
experimentalReadout: activity change, negative = cytotoxicity

Some solved cases for reference:
CN(C)C(=O)CNC(=O)Cc1ccccc1 | inactive
CC(=O)Nc1ccc(S(=O)(=O)Cl)cc1 | inactive
COCCc1ccc(OCC2CO2)cc1 (configuration not stated) | inactive
CC(CC=O)CCCC(C)(C)O (configuration not stated) | inactive
CCn1ccc(NS(=O)(=O)c2ccc(N)cc2)nc1=O | inactive
Oc1cn2c(n1)Nc1ccc(Cl)c(Cl)c1C2 | -2.73% [at 15.8 µM] (inactive)
CCCC/C=C\CCCCCCCCCC=O | inactive
COc1ccc(S(=O)(=O)N2c3ccc(Cl)cc3[C@@](O)(c3ccccc3Cl)[C@H]2C(=O)N2CCC[C@@H]2C(N)=O)cc1OC | inactive
O=C(O)c1cc(Cl)cc([N+](=O)[O-])c1Cl | inactive
CC(C)NCC(O)COc1cccc2[nH]ccc12 (configuration not stated) | inactive

Lookup: Fill blank: measured activity change, negative = cytotoxicity of the molecule `C=C1CC/C=C(\C)CC[C@@H]2[C@@H]1CC2(C)C` is ____.
Found: inactive

Lookup: Fill blank: measured activity change, negative = cytotoxicity of the molecule CC(C(=O)O)c1ccc2c(c1)CC(=O)c1ccccc1S2 (configuration not stated) is ____.
Found: inactive

* * *

Target: Thyrotropin-releasing hormone receptor (Homo sapiens)
Assay: qHTS assay to identify small molecule antagonists of the thyrotropin-releasing hormone receptor (TRHR) signaling pathway (AID 1346877); also: % is scaled to controls: 0 for no effect and ±100 for the full control effect
Conditions: TRHR-HEK293, TRH-induced calcium fluorescence, antagonist mode; series mostly up to 51.3 µM
Active and inactive are the calls of the source. The call rests on the fitted dose curve; in most records, active means well fitted inhibition curve with a large enough effect in the repeat runs (not every such curve was filed as active); inconclusive means weak or mixed curves; inactive means flat fitted curve, though single readings scatter.
experimentalReadout: activity, negative = inhibition

Some solved cases for reference:
O=C1c2ccccc2C(=O)N1CCl | inactive
BrCCCCCBr | inactive
CCc1ccc(C=O)cc1 | inactive
CCCCCCCCOS(=O)(=O)O | inactive
ClCCCl | inactive
COc1ccc2c(c1)C(=O)N(CCc1ccc(S(=O)(=O)NC(=O)NC3CCCCC3)cc1)C(=O)C2(C)C | inactive

Please look at the following compound next.
Lookup: Thyrotropin-releasing hormone receptor (Homo sapiens) / activity, negative = inhibition / `O=C1O[C@@H]2[C@@H](O)[C@H](O)O[C@@H]2[C@H]1O` : value?
Found: inactive

* * *

Assay: qHTS assay to identify small molecule antagonists of the thyroid receptor (TR) signaling pathway - cell viability counter screen (AID 743064); also: nearly all actives have a fitted effect of over 50% in size
Conditions: GH3.TRE-Luc viability, CellTiter-Fluor, 24 h; series mostly up to 70.3 µM
Results filed as inconclusive are left out. Calls of active or inactive are those of the source. Calls follow the shape of the dose curve; as a rule, active = well fitted cell-killing curve with a large enough effect in the repeat runs; inconclusive = weak or mixed curves, or effect the other way; inactive = no such curve, though single readings can be large or run the other way.
Write down one outcome, taken from TRUE (active), FALSE (inactive)

Look over these answered cases.
CC(=O)N[C@@H](CCC(=O)O)C(=O)O | FALSE
C=C(C)C(=O)OCCNC(C)(C)C | FALSE
CC(=O)Nc1cccc(C)c1 | FALSE
CCOC(=O)/C=C/c1ccccc1 | FALSE
O=C(CCN1CCN(CCO)CC1)N1c2ccccc2Sc2ccc(C(F)(F)F)cc21 | TRUE
O=C(OCc1ccccc1)C(=O)OCc1ccccc1 | FALSE

API: the following record is the query input.
Lookup: For this molecule, state the assay outcome: `CCC(CC)CO`
Found: FALSE

* * *

Target: Bile acid receptor (Homo sapiens)
Experiment: qHTS assay to identify small molecule antagonists of the farnesoid-X-receptor (FXR) signaling pathway (AID 743217); also: % is scaled to controls: 0 for no effect and ±100 for the full control effect
Details: HEK293T FXR-UAS-bla, beta-lactamase ratio, CDCA-stimulated, 16 h; series mostly up to 62.6 µM
Inconclusive results are not listed. Calls of active or inactive are those of the source. Calls come from the whole dose curve; as a rule, active = well fitted inhibition curve with a large enough effect in the signal ratio in the repeat runs (not every such curve was filed as active); inconclusive = weak or mixed curves, or effect the other way; inactive = no such curve, though single readings can be large or run the other way; the % refers to the signal ratio.
Write down one outcome, taken from 1 for active, 0 for inactive

Lookup: For this compound, state the assay outcome: `CC(C)C(=O)OCCc1ccccc1`
Found: 0

Lookup: For this compound, state the assay outcome: `O=C(O)c1cc(Cl)cc([N+](=O)[O-])c1Cl`
Found: 0

Lookup: For this compound, state the assay outcome: `CN(CCOc1ccc(NS(C)(=O)=O)cc1)CCc1ccc(NS(C)(=O)=O)cc1`
Found: 0
